B1: Transcription elongation factor A N-terminal and central domain-containing protein, residues 30 to 77; numbered along this chain, Q8N8B7 (parent)
chain: LTELETIYVTKEHLQETDVVRAVYRVLKNCPSVALKKKAKCLLSKWKA

# Variants of: B1
# assay notes: abundance fitness (aPCA) (normalised: wild type 0, dead -1); higher = more abundant; growth selection in yeast, the domain comes from the species named
# applied conditions: Homo sapiens
Label satisfied when abundance fitness is at or above -0.07; anything below gets not satisfied.

mutant_designation=C30Y label="not satisfied"
mutant_designation=K36W label=satisfied
mutant_designation=V23M label="not satisfied"
mutant_designation=E12H label="not satisfied"
mutant_designation=R25G label="not satisfied"
mutant_designation=Y8G label=satisfied
mutant_designation=V26S label="not satisfied"
mutant_designation=S44P label="not satisfied"
mutant_designation=L4V label="not satisfied"
mutant_designation=V23R label="not satisfied"
mutant_designation=K28L label="not satisfied"
mutant_designation=E12M label="not satisfied"
mutant_designation=C41T label="not satisfied"
mutant_designation=V23F label=satisfied
mutant_designation=L43K label="not satisfied"
mutant_designation=L27A label="not satisfied"
mutant_designation=V20P label="not satisfied"
mutant_designation=L14T label=satisfied
mutant_designation=I7M label=satisfied
mutant_designation=V33S label=satisfied
mutant_designation=S32V label=satisfied
mutant_designation=I7S label=satisfied
mutant_designation=I7E label=satisfied
mutant_designation=V20A label=satisfied
mutant_designation=E3W label=satisfied
mutant_designation=H13C label="not satisfied"
mutant_designation=K47E label="not satisfied"
mutant_designation=V20Y label="not satisfied"
mutant_designation=E3Q label="not satisfied"
mutant_designation=P31Y label=satisfied
mutant_designation=C41L label=satisfied
mutant_designation=K37G label="not satisfied"
mutant_designation=L1W label="not satisfied"
mutant_designation=T6Y label="not satisfied"
mutant_designation=A34C label=satisfied
mutant_designation=H13S label=satisfied
mutant_designation=P31G label=satisfied
mutant_designation=T6M label="not satisfied"
mutant_designation=S32A label=satisfied
mutant_designation=K45N label="not satisfied"
mutant_designation=A22F label="not satisfied"
mutant_designation=T17Y label="not satisfied"
mutant_designation=C41Q label=satisfied
mutant_designation=L27I label=satisfied
mutant_designation=T6R label="not satisfied"
